B1: 2K2A (parent)
chain: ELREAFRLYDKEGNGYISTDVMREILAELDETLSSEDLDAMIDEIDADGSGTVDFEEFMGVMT

variants of: B1; test: folding stability dG (cDNA display proteolysis); higher = more stable; details: PBS, room temperature
recorded-endpoint: folding stability dG

>>> result_value("R23G")
"-0.378 kcal/mol"
>>> result_value("V53R")
"-0.087 kcal/mol"
>>> result_value("E36N")
"1.66 kcal/mol"
>>> result_value("M59C")
"1.7 kcal/mol"
>>> result_value("I25M")
"1.31 kcal/mol"
>>> result_value("T19L")
"2.27 kcal/mol"
>>> result_value("D43I")
"2.04 kcal/mol"
>>> result_value("A5V")
"2.6 kcal/mol"
>>> result_value("A47T")
"1.84 kcal/mol"
>>> result_value("D37Q")
"2.1 kcal/mol"
>>> result_value("E31V")
"2.01 kcal/mol"
>>> result_value("A27I")
"1.87 kcal/mol"
>>> result_value("R23S")
"-0.561 kcal/mol"
>>> result_value("S18G")
"1.52 kcal/mol"
>>> result_value("G49D")
"1.42 kcal/mol"
>>> result_value("Y9R")
"1.32 kcal/mol"
>>> result_value("V21R")
"1.88 kcal/mol"
>>> result_value("D54M")
"1.76 kcal/mol"
>>> result_value("E44A")
"2.12 kcal/mol"
>>> result_value("E56S")
"1.75 kcal/mol"
>>> result_value("D48H")
"1.51 kcal/mol"
>>> result_value("R3F")
"2.11 kcal/mol"
